# Tested on: PP1S-resistant M. tuberculosis
# Format: cell-based, Mycobacterium tuberculosis
observationType: MIC

Prompt: Lab request: please report MIC under test system PP1S-resistant M. tuberculosis for COC(=O)[C@@H]1CCC(=O)N1Cc1cc2ccc(OCc3ccccc3)cc2c2cc(OC)c(OC)cc12
Completion: > 100 µg/mL

Prompt: Check CO[C@H]1/C=C/O[C@@]2(C)Oc3c(C)c(O)c4c(O)c(c(/C=N/N5CCN(C)CC5)c(O)c4c3C2=O)NC(=O)/C(C)=C\C=C\[C@H](C)[C@H](O)[C@@H](C)[C@@H](O)[C@@H](C)[C@H](OC(C)=O)[C@@H]1C [RIF, rifampicin, reference compound] too.
Completion: 0.1 µg/mL

Prompt: Also COC(=O)[C@@H]1CCC(=O)N1Cc1cc2ccc(OC)cc2c2cc(OC)c(OC)cc12 ?
Completion: > 100 µg/mL

Next:
Prompt: Form entry - test system: PP1S-resistant M. tuberculosis; read-out: MIC; compound: CC[C@@H](CO)NCCN[C@@H](CC)CO
Completion: 1.6 µg/mL

====

# Test system: PP1S-resistant M. tuberculosis
# Type: cell-based, Mycobacterium tuberculosis
observationType: MIC (µg/mL)
Numbers only, in µg/mL.

Prompt: Field request: MIC | item: NNC(=O)c1ccncc1 [INH, isoniazid, reference compound]
Completion: 0.2

// next item, MIC requested
Prompt: What measured MIC goes with [H]/N=C(/N)N[C@H]1[C@H](O)[C@@H](O)[C@H](O[C@@H]2O[C@@H](C)[C@](O)(C=O)[C@H]2O[C@@H]2O[C@@H](CO)[C@H](O)[C@@H](O)[C@@H]2NC)[C@@H](N/C(N)=N\[H])[C@@H]1O ?
Completion: 0.2
